Values compiled from ChEMBL document CHEMBL2401691.

Assay: Solubility of the compound after 24 hrs at pH 7.2
Type: physicochemical
Conditions: buffer
property label: solubility at 24 h (µg/mL)
Give the number; µg/mL is assumed, so skip it.

Data request, read-out solubility at 24 h, for C=C[C@@H]1C[C@]1(NC(=O)[C@@H]1C[C@@](OC)(c2ccc(-c3ccccc3OC)cc2)CN1C(=O)[C@@H](NC(=O)OC1CCCC1)C(C)(C)C)C(=O)NS(=O)(=O)C1CC1
36

Data request, read-out solubility at 24 h, for C=C[C@@H]1C[C@]1(NC(=O)[C@@H]1C[C@@](OC)(c2ccc(-c3nccs3)cc2)CN1C(=O)[C@@H](NC(=O)OC1CCCC1)C(C)(C)C)C(=O)NS(=O)(=O)C1CC1
452

Data request, read-out solubility at 24 h, for C=C[C@@H]1C[C@]1(NC(=O)[C@@H]1C[C@@](OC)(c2ccc(-c3ccccc3)cc2)CN1C(=O)[C@@H](NC(=O)OC1CCCC1)C(C)(C)C)C(=O)NS(=O)(=O)C1CC1
43

Data request, read-out solubility at 24 h, for C=C[C@@H]1C[C@]1(NC(=O)[C@@H]1C[C@@](OC)(c2ccc(-c3ccccc3)nc2)CN1C(=O)[C@@H](NC(=O)OC1CCCC1)C(C)(C)C)C(=O)NS(=O)(=O)C1CC1
600

----------
Experiment: Half life in rat liver microsomes
Assay type: ADME, Microsome
property label: half-life (h)
Give the number; h is assumed, so skip it.

Data request, read-out half-life, for C=C[C@@H]1C[C@]1(NC(=O)[C@@H]1C[C@@](OC)(c2ccc(-c3nccs3)cc2)CN1C(=O)[C@@H](NC(=O)OC1CCCC1)C(C)(C)C)C(=O)NS(=O)(=O)C1CC1
1.1

Data request, read-out half-life, for C=C[C@@H]1C[C@]1(NC(=O)[C@@H]1C[C@@](OC)(c2ccc(-c3ccc(OC)cc3)cc2)CN1C(=O)[C@@H](NC(=O)OC1CCCC1)C(C)(C)C)C(=O)NS(=O)(=O)C1CC1
1.4

Data request, read-out half-life, for C=C[C@@H]1C[C@]1(NC(=O)[C@@H]1C[C@@](OC)(c2ccc(-c3ccccc3)nc2)CN1C(=O)[C@@H](NC(=O)OC1CCCC1)C(C)(C)C)C(=O)NS(=O)(=O)C1CC1
2

Data request, read-out half-life, for C=C[C@@H]1C[C@]1(NC(=O)[C@@H]1C[C@@](OC)(c2ccc(-c3cscn3)cc2)CN1C(=O)[C@@H](NC(=O)OC1CCCC1)C(C)(C)C)C(=O)NS(=O)(=O)C1CC1
3.67

Data request, read-out half-life, for C=C[C@@H]1C[C@]1(NC(=O)[C@@H]1C[C@@](OC)(c2ccc(-c3cc(C)ccc3OC)nc2)CN1C(=O)[C@@H](NC(=O)OC1CCCC1)C(C)(C)C)C(=O)NS(=O)(=O)C1CC1
1.42

----------
Would you mind telling me the reported half-life of each entry?
Assay: Half life in human liver microsomes
Format: ADME, Microsome
Give the number; h is assumed, so skip it.

Data request, read-out half-life, for C=C[C@@H]1C[C@]1(NC(=O)[C@@H]1C[C@@](OC)(c2ccc(-c3ccccc3OC)cc2)CN1C(=O)[C@@H](NC(=O)OC1CCCC1)C(C)(C)C)C(=O)NS(=O)(=O)C1CC1
0.717

Data request, read-out half-life, for C=C[C@@H]1C[C@]1(NC(=O)[C@@H]1C[C@@](OC)(c2ccc(-c3cscn3)cc2)CN1C(=O)[C@@H](NC(=O)OC1CCCC1)C(C)(C)C)C(=O)NS(=O)(=O)C1CC1
0.9

Data request, read-out half-life, for C=C[C@@H]1C[C@]1(NC(=O)[C@@H]1C[C@@](OC)(c2ccc(-c3cccc(OC)c3)cc2)CN1C(=O)[C@@H](NC(=O)OC1CCCC1)C(C)(C)C)C(=O)NS(=O)(=O)C1CC1
1.12

Data request, read-out half-life, for C=C[C@@H]1C[C@]1(NC(=O)[C@@H]1C[C@@](OC)(c2ccc(-c3ccc(C)cn3)cc2)CN1C(=O)[C@@H](NC(=O)OC1CCCC1)C(C)(C)C)C(=O)NS(=O)(=O)C1CC1
0.917

Data request, read-out half-life, for C=C[C@@H]1C[C@]1(NC(=O)[C@@H]1C[C@@](OC)(c2ccc(-c3cnn(C)c3)cc2)CN1C(=O)[C@@H](NC(=O)OC1CCCC1)C(C)(C)C)C(=O)NS(=O)(=O)C1CC1
1.37

Data request, read-out half-life, for C=C[C@@H]1C[C@]1(NC(=O)[C@@H]1C[C@@](OC)(c2ccc(-c3cc(C)ccc3OC)nc2)CN1C(=O)[C@@H](NC(=O)OC1CCCC1)C(C)(C)C)C(=O)NS(=O)(=O)C1CC1
1.4

Data request, read-out half-life, for C=C[C@@H]1C[C@]1(NC(=O)[C@@H]1C[C@@](OC)(c2ccc(-c3nccs3)cc2)CN1C(=O)[C@@H](NC(=O)OC1CCCC1)C(C)(C)C)C(=O)NS(=O)(=O)C1CC1
1.1

Data request, read-out half-life, for C=C[C@@H]1C[C@]1(NC(=O)[C@@H]1C[C@@](OC)(c2ccc(-c3ccc(OC)cc3)cc2)CN1C(=O)[C@@H](NC(=O)OC1CCCC1)C(C)(C)C)C(=O)NS(=O)(=O)C1CC1
0.85

----------
Experiment: Volume of distribution at steady state in rat at 2 mg/kg, iv
Assay type: ADME, organism-based
Design: dose 2 mg/kg, route intravenous
Details: in vivo, read-out: Vdss
property label: Vd
Please append the unit to your numeric answer.

Data request, read-out Vd, for C=C[C@@H]1C[C@]1(NC(=O)[C@@H]1C[C@@](OC)(c2ccc(-c3ccccc3)cc2)CN1C(=O)[C@@H](NC(=O)OC1CCCC1)C(C)(C)C)C(=O)NS(=O)(=O)C1CC1
3.04 L/kg

----------
Assay: AUC (0 to infinity) in rat at 5 mg/kg, po
Type: ADME, organism-based
Parameters: time infinity, dose 5 mg/kg, route oral
Conditions: plasma
property label: AUC(0-inf)
Please append the unit to your numeric answer.

Data request, read-out AUC(0-inf), for C=C[C@@H]1C[C@]1(NC(=O)[C@@H]1C[C@@](OC)(c2ccc(-c3ccccc3)cc2)CN1C(=O)[C@@H](NC(=O)OC1CCCC1)C(C)(C)C)C(=O)NS(=O)(=O)C1CC1
1.32 µM·h

----------
Assay: Half life in rat liver microsomes
Format: ADME, Microsome
property label: half-life (h)
Give the number; h is assumed, so skip it.

Data request, read-out half-life, for C=C[C@@H]1C[C@]1(NC(=O)[C@@H]1C[C@@](OC)(c2ccc(-c3cccnc3)cc2)CN1C(=O)[C@@H](NC(=O)OC1CCCC1)C(C)(C)C)C(=O)NS(=O)(=O)C1CC1
2.17

Data request, read-out half-life, for C=C[C@@H]1C[C@]1(NC(=O)[C@@H]1C[C@@](OC)(c2ccc(-c3ccncc3)cc2)CN1C(=O)[C@@H](NC(=O)OC1CCCC1)C(C)(C)C)C(=O)NS(=O)(=O)C1CC1
1.83

Data request, read-out half-life, for C=C[C@@H]1C[C@]1(NC(=O)[C@@H]1C[C@@](OC)(c2ccc(-c3ccccc3)cc2)CN1C(=O)[C@@H](NC(=O)OC1CCCC1)C(C)(C)C)C(=O)NS(=O)(=O)C1CC1
1.98

Data request, read-out half-life, for C=C[C@@H]1C[C@]1(NC(=O)[C@@H]1C[C@@](OC)(c2ccc(-c3cnn(C)c3)cc2)CN1C(=O)[C@@H](NC(=O)OC1CCCC1)C(C)(C)C)C(=O)NS(=O)(=O)C1CC1
2

----------
Would you mind telling me the reported solubility at 24 h of each entry?
Experiment: Solubility of the compound after 24 hrs at pH 7.2
Type: physicochemical
Conditions: buffer
Give the number; µg/mL is assumed, so skip it.

Data request, read-out solubility at 24 h, for C=C[C@@H]1C[C@]1(NC(=O)[C@@H]1C[C@@](OC)(c2ccc(-c3cccc(OC)c3)cc2)CN1C(=O)[C@@H](NC(=O)OC1CCCC1)C(C)(C)C)C(=O)NS(=O)(=O)C1CC1
19

Data request, read-out solubility at 24 h, for C=C[C@@H]1C[C@]1(NC(=O)[C@@H]1C[C@@](OC)(c2ccc(-c3cnn(C)c3)cc2)CN1C(=O)[C@@H](NC(=O)OC1CCCC1)C(C)(C)C)C(=O)NS(=O)(=O)C1CC1
540

Data request, read-out solubility at 24 h, for C=C[C@@H]1C[C@]1(NC(=O)[C@@H]1C[C@@](OC)(c2ccc(-c3cccnc3)cc2)CN1C(=O)[C@@H](NC(=O)OC1CCCC1)C(C)(C)C)C(=O)NS(=O)(=O)C1CC1
940

----------
Assay: Ratio of drug level in rat liver to plasma at 5 mg/kg, po after 6 hrs
Assay type: ADME, organism-based
Design: dose 5 mg/kg, route oral
property label: Kp at 6 h
Just the number.

Data request, read-out Kp at 6 h, for C=C[C@@H]1C[C@]1(NC(=O)[C@@H]1C[C@@](OC)(c2ccc(-c3ccccc3)cc2)CN1C(=O)[C@@H](NC(=O)OC1CCCC1)C(C)(C)C)C(=O)NS(=O)(=O)C1CC1
45
